- Target or test system: serum sample IHUS#B09032311A1
- Test name: ECL displacement assay, variant competes with tagged SEQ ID NO:1
Observable: % reduction (%)

Example 1C: wildtype VHH (SEQ ID NO: 23) (VHH) VHH: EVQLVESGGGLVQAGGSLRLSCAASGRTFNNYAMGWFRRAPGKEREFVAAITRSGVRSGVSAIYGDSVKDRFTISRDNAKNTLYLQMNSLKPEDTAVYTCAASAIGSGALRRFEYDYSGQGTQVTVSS ... 4
Example 1C: (A14P) (SEQ ID NO: 24) (VHH) VHH: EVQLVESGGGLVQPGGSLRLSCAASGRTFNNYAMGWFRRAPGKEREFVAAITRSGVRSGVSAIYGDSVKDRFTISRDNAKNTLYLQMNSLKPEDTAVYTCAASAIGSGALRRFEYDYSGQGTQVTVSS ... 10
Example 1C: (A14P, R39Q, K83R, T91Y, Q108L) (SEQ ID NO: 28) (VHH) VHH: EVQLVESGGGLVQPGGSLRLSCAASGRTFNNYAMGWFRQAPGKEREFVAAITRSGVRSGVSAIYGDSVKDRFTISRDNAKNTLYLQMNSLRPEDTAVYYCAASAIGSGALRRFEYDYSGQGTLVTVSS ... 6

[A] Example 1C: (K83R) (SEQ ID NO: 25) (VHH) VHH: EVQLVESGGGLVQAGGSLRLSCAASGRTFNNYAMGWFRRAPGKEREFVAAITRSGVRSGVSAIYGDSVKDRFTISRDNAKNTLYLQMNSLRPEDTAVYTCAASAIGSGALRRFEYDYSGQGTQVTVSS
[B] Example 1C: (A14P, K83R, Q108L) (SEQ ID NO: 27) (VHH) VHH: EVQLVESGGGLVQPGGSLRLSCAASGRTFNNYAMGWFRRAPGKEREFVAAITRSGVRSGVSAIYGDSVKDRFTISRDNAKNTLYLQMNSLRPEDTAVYTCAASAIGSGALRRFEYDYSGQGTLVTVSS
[C] Example 1C: (Q108L) (SEQ ID NO: 26) (VHH) VHH: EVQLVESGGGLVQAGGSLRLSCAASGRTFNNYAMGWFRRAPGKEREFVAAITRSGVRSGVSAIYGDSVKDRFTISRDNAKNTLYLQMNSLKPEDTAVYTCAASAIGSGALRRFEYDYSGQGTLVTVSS
# input Reorder the items by % reduction, least to greatest. Rank them, then answer with their labels in that order.
# output A, C, B
